test system: spasmogenic effect of epinephrine on the isolated guineapig seminal vescicle; assay: adrenergic blockade in vitro: receptor blockade against the spasmogenic effect of epinephrine on the isolated guineapig seminal vescicle; type: biochemical; conditions: concentration producing 50% inhibition of the effect of epinephrine, estimated graphically
Assignment: determine reported adrenergic blockade In vitro IC50 for the given compounds.
Give your result as the value with the unit written after it.

Recorded adrenergic blockade In vitro IC50, per entry:
CN1C[C@H](C(=O)N[C@]2(C)O[C@@]3(O)[C@@H]4CCCN4C(=O)[C@H](Cc4ccc(Cl)cc4)N3C2=O)C[C@@H]2c3cccc4[nH]cc(c34)C[C@H]21 = 0.02 µg/mL
CC(C)[C@@]1(NC(=O)[C@@H]2C[C@@H]3c4cccc5[nH]cc(c45)C[C@H]3N(C)C2)O[C@@]2(O)[C@@H]3CCCN3C(=O)[C@H](Cc3ccc(Cl)cc3)N2C1=O = 0.03 µg/mL
CN1C[C@H](C(=O)N[C@]2(C)O[C@@]3(O)[C@@H]4CCCN4C(=O)[C@H](Cc4ccc(Cl)cc4)N3C2=O)C=C2c3cccc4[nH]cc(c34)C[C@H]21 [5'-debenzyl-5'-p-chlorobenzyl ergotamine] = 0.03 µg/mL

Below are some compounds; for each one, tell me its adrenergic blockade In vitro IC50.
1. CN1C[C@H](C(=O)N[C@]2(C)O[C@@]3(O)[C@@H]4CCCN4C(=O)[C@H](Cc4ccccc4)N3C2=O)C[C@@H]2c3cccc4[nH]cc(c34)C[C@H]21 [Dihydroergotamine, reference compound]
2. CN1C[C@H](C(=O)N[C@]2(C)O[C@@]3(O)[C@@H]4CCCN4C(=O)[C@H](Cc4ccccc4)N3C2=O)C=C2c3cccc4[nH]cc(c34)C[C@H]21 [Ergotamine, reference compound]

**Result**
1: 0.02 µg/mL; 2: 0.07 µg/mL

---

test: acute toxicity (LD50) in mice; settings: mouse, in vivo, iv, standard procedure
MEASUREMENT NAME: LD50 (mg/kg)
Give bare numbers, in mg/kg.

Recorded LD50, per entry:
CC(C)[C@@]1(NC(=O)[C@@H]2C[C@@H]3c4cccc5[nH]cc(c45)C[C@H]3N(C)C2)O[C@@]2(O)[C@@H]3CCCN3C(=O)[C@H](Cc3ccc(Cl)cc3)N2C1=O = 190
CC(C)[C@@]1(NC(=O)[C@@H]2C[C@@H]3c4cccc5[nH]cc(c45)C[C@H]3N(C)C2)O[C@@]2(O)[C@@H]3CCCN3C(=O)[C@H](Cc3ccccc3)N2C1=O [Dihydroergocristine, reference compound] = 174
CN1C[C@H](C(=O)N[C@]2(C)O[C@@]3(O)[C@@H]4CCCN4C(=O)[C@H](Cc4ccccc4)N3C2=O)C[C@@H]2c3cccc4[nH]cc(c34)C[C@H]21 [Dihydroergotamine, reference compound] = 118
CN1C[C@H](C(=O)N[C@]2(C)O[C@@]3(O)[C@@H]4CCCN4C(=O)[C@H](Cc4ccc(Cl)cc4)N3C2=O)C[C@@H]2c3cccc4[nH]cc(c34)C[C@H]21 = 150
CN1C[C@H](C(=O)N[C@]2(C)O[C@@]3(O)[C@@H]4CCCN4C(=O)[C@H](Cc4ccccc4)N3C2=O)C=C2c3cccc4[nH]cc(c34)C[C@H]21 [Ergotamine, reference compound] = 70

Attention now turns to another entry.
**Query** Which LD50 value belongs to CN1C[C@H](C(=O)N[C@]2(C)O[C@@]3(O)[C@@H]4CCCN4C(=O)[C@H](Cc4ccc(Cl)cc4)N3C2=O)C=C2c3cccc4[nH]cc(c34)C[C@H]21 ?
**Result** 100
